# target-or-system: human P2X3 receptor (Homo sapiens (Human))
# measurement-notes: Evaluation of human P2X3 receptor inhibitory activity (Test Example 1)
# settings: C6BU-1 cell transfected with human P2X3 receptor gene, FLIPR 384
pIC50: −log10 of the molar value.
Please mark yes (1) if the recorded pIC50 is equal to or greater than 8, and no (0) if it falls below.

- smiles-input: "COC(=O)[C@H](C)[C@H](C)n1c(=O)[nH]/c(=N\\c2ccc(Oc3ccccn3)c(F)c2)n(Cc2ccc(Cl)cc2)c1=O"
  target-or-system: "human P2X3 receptor (Homo sapiens (Human))"
  assigned-class: "no (0)"
- smiles-input: "CO[C@@H](Cn1c(=O)[nH]/c(=N\\c2ccc(Oc3ncccc3F)cc2)n(Cc2ccc(Cl)cc2)c1=O)C(=O)O"
  target-or-system: "human P2X3 receptor (Homo sapiens (Human))"
  assigned-class: "yes (1)"
- smiles-input: "CO[C@@H](Cn1c(=O)[nH]/c(=N\\c2ccc(Oc3ccccn3)cc2)n(Cc2ccc(Cl)cc2)c1=O)C(=O)O"
  target-or-system: "human P2X3 receptor (Homo sapiens (Human))"
  assigned-class: "yes (1)"
- smiles-input: "CCOC(=O)Cn1c(=O)[nH]/c(=N\\c2ccc(Oc3ccc(Cl)cn3)cc2)n(Cc2ccc(Cl)cc2)c1=O"
  target-or-system: "human P2X3 receptor (Homo sapiens (Human))"
  assigned-class: "yes (1)"

* * *

Catalogue of IC50 readings, one per entry.
# target-or-system: human P2X3 receptor (Homo sapiens (Human))
# measurement-notes: Evaluation of human P2X3 receptor inhibitory activity (Test Example 1)
# settings: C6BU-1 cell transfected with human P2X3 receptor gene, FLIPR 384
measured-parameter: IC50

- molecule: "COC(=O)[C@@H](C)Cn1c(=O)[nH]/c(=N\\c2ccc(N3CCCCC3)c(F)c2)n(Cc2ccc(Cl)cc2)c1=O [Compound R-140]"
  target-or-system: "human P2X3 receptor (Homo sapiens (Human))"
  measured-parameter: "IC50"
  result: "37 nM"
- molecule: "CC(C)(Cn1c(=O)[nH]/c(=N\\c2ccc(Oc3ccccn3)cc2)n(Cc2ccc(Cl)cc2)c1=O)C(=O)O [Compound I-154]"
  target-or-system: "human P2X3 receptor (Homo sapiens (Human))"
  measured-parameter: "IC50"
  result: "8 nM"
- molecule: "CCc1oc2ccc(/N=c3\\[nH]c(=O)n(C[C@H](C)C(=O)O)c(=O)n3Cc3ccc(C)cc3)cc2c1C [Compound R-222]"
  target-or-system: "human P2X3 receptor (Homo sapiens (Human))"
  measured-parameter: "IC50"
  result: "9 nM"
- molecule: "COC(=O)C(C)(C)Cn1c(=O)[nH]/c(=N\\c2ccc(Oc3cccnn3)c(F)c2)n(Cc2ccc(Cl)cc2)c1=O [Compound R-034]"
  target-or-system: "human P2X3 receptor (Homo sapiens (Human))"
  measured-parameter: "IC50"
  result: "5 nM"

* * *

# target-or-system: human P2X3 receptor (Homo sapiens (Human), UniProt P56373)
# Sequence (P56373 whole entry): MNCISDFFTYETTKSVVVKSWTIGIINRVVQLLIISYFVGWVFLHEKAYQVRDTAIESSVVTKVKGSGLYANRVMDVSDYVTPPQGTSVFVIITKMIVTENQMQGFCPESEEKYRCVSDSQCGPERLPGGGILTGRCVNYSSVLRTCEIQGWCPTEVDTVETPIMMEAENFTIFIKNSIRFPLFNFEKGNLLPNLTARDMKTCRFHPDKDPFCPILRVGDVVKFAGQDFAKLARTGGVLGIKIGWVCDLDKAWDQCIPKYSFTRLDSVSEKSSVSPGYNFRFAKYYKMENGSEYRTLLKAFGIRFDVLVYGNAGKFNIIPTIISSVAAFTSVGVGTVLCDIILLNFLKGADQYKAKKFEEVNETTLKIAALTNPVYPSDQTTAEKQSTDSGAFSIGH
# measurement-notes: Evaluation of human P2X3 receptor inhibitory activity (Test Example 1)
# settings: C6BU-1 cell transfected with human P2X3 receptor gene, FLIPR 384
pIC50: −log10 of the molar value.
measured-parameter: pIC50

- smiles-input: "COC(=O)C(C)(C)Cn1c(=O)[nH]/c(=N\\c2ccc(Oc3cc(Cl)ccn3)cc2)n(Cc2ccc(Cl)cc2)c1=O"
  target-or-system: "human P2X3 receptor (Homo sapiens (Human), UniProt P56373)"
  measured-number: 7.42
- smiles-input: "COC(=O)[C@H](Cn1c(=O)[nH]/c(=N\\c2ccc(Oc3ccc(F)cn3)cc2)n(Cc2ccc(Cl)cc2)c1=O)OC"
  target-or-system: "human P2X3 receptor (Homo sapiens (Human), UniProt P56373)"
  measured-number: 8.22
- smiles-input: "Cc1ccc(Cn2c(=O)n([C@@H](C)[C@@H](C)C(=O)O)c(=O)[nH]/c2=N\\c2ccc(Oc3ccccn3)cc2)cc1"
  target-or-system: "human P2X3 receptor (Homo sapiens (Human), UniProt P56373)"
  measured-number: 8.15
- smiles-input: "COc1ccnc(Oc2ccc(/N=c3\\[nH]c(=O)n(C[C@H](C)C(=O)O)c(=O)n3Cc3ccc(Cl)cc3)cc2)c1"
  target-or-system: "human P2X3 receptor (Homo sapiens (Human), UniProt P56373)"
  measured-number: 8.15
- smiles-input: "COC(=O)CCn1c(=O)[nH]/c(=N\\c2ccc(Oc3ccccn3)cc2)n(Cc2ccc(Cl)cc2)c1=O"
  target-or-system: "human P2X3 receptor (Homo sapiens (Human), UniProt P56373)"
  measured-number: 8.40
- smiles-input: "C[C@@H](C(=O)O)[C@H](C)n1c(=O)[nH]/c(=N\\c2ccc(Oc3ccccn3)cc2)n(Cc2ccc(Cl)cc2)c1=O"
  target-or-system: "human P2X3 receptor (Homo sapiens (Human), UniProt P56373)"
  measured-number: 8.15
- smiles-input: "O=c1[nH]/c(=N\\c2ccc(Oc3ncccc3F)cc2)n(Cc2ccc(Cl)cc2)c(=O)n1[C@H]1C[C@@H](C(=O)O)C1"
  target-or-system: "human P2X3 receptor (Homo sapiens (Human), UniProt P56373)"
  measured-number: 8.00
- smiles-input: "Cc1cc(/N=c2\\[nH]c(=O)n(CC(C)(C)C(=O)O)c(=O)n2Cc2ccc(Cl)cc2)ccc1N1CCCCC1"
  target-or-system: "human P2X3 receptor (Homo sapiens (Human), UniProt P56373)"
  measured-number: 7.01
- smiles-input: "COC(=O)[C@@H](C)Cn1c(=O)[nH]/c(=N\\c2ccc(Oc3ccccn3)cc2)n(C[C@H]2CC[C@H](C)CC2)c1=O"
  target-or-system: "human P2X3 receptor (Homo sapiens (Human), UniProt P56373)"
  measured-number: 8.15
- smiles-input: "O=c1[nH]/c(=N\\c2ccc(Oc3ccccn3)cc2)n(Cc2ccc(Cl)cc2)c(=O)n1CC(O)(CO)CO"
  target-or-system: "human P2X3 receptor (Homo sapiens (Human), UniProt P56373)"
  measured-number: 8.30
- smiles-input: "C[C@@H](Cn1c(=O)[nH]/c(=N\\c2ccc(Oc3cc(F)ncn3)cc2)n(Cc2ccc(Cl)cc2)c1=O)C(=O)O"
  target-or-system: "human P2X3 receptor (Homo sapiens (Human), UniProt P56373)"
  measured-number: 8.05
- smiles-input: "Cc1ccc(Cn2c(=O)n(CC(C)(C)C(=O)O)c(=O)[nH]/c2=N\\c2ccc(Oc3cccc(Cl)n3)cc2)cc1"
  target-or-system: "human P2X3 receptor (Homo sapiens (Human), UniProt P56373)"
  measured-number: 8.10
- smiles-input: "Cc1cc(/N=c2\\[nH]c(=O)n([C@@H](C)[C@@H](C)C(=O)O)c(=O)n2Cc2ccc(Cl)cc2)ccc1Oc1ccccn1"
  target-or-system: "human P2X3 receptor (Homo sapiens (Human), UniProt P56373)"
  measured-number: 8.00

* * *

# target-or-system: UniProt:P56373
# measurement-notes: Evaluation of human P2X3 receptor inhibitory activity (Test Example 1)
# Format: cell-based
# settings: C6BU-1 cell transfected with human P2X3 receptor gene, FLIPR 384
measured-parameter: IC50 (nM)

- compound: "COC(=O)[C@H](C)[C@H](C)n1c(=O)[nH]/c(=N\\c2ccc(Oc3ncc(C)s3)cc2)n(Cc2ccc(Cl)cc2)c1=O [Compound R-182]"
  unit-string: "nM"
  measured-number: 26
- compound: "Cc1ccc(Cn2c(=O)n(CCC(=O)O)c(=O)[nH]/c2=N\\c2ccc(Oc3ccccn3)c(F)c2)cc1 [Compound R-280]"
  unit-string: "nM"
  measured-number: 9
- compound: "CC(C)(Cn1c(=O)[nH]/c(=N\\c2ccc(Oc3ncccc3C(F)(F)F)cc2)n(Cc2ccc(Cl)cc2)c1=O)C(=O)O [Compound I-033]"
  unit-string: "nM"
  measured-number: 23
- compound: "COC(=O)[C@@H](C)Cn1c(=O)[nH]/c(=N\\c2ccc(Oc3ccc(OC)cn3)cc2)n(Cc2ccc(C)cc2)c1=O [Compound I-222]"
  unit-string: "nM"
  measured-number: 4
- compound: "COC(=O)C(C)(C)Cn1c(=O)[nH]/c(=N\\c2ccc(Oc3cncc(OC)c3)cc2)n(Cc2ccc(Cl)cc2)c1=O [Compound R-200]"
  unit-string: "nM"
  measured-number: 8
- compound: "Cc1ccc(Cn2c(=O)n(CCC(=O)O)c(=O)[nH]/c2=N\\c2ccc(Oc3ccccn3)c(C)c2)cc1 [Compound R-282]"
  unit-string: "nM"
  measured-number: 23
- compound: "CC(=O)c1cccc(Oc2ccc(/N=c3\\[nH]c(=O)n(CCC(=O)O)c(=O)n3Cc3ccc(Cl)cc3)cc2)n1 [Compound R-299]"
  unit-string: "nM"
  measured-number: 20
- compound: "CNC(=O)Cn1c(=O)[nH]/c(=N\\c2ccc(Oc3ccccn3)cc2)n(Cc2ccc(Cl)cc2)c1=O [Compound R-241]"
  unit-string: "nM"
  measured-number: 9
- compound: "COC(=O)[C@H](C)Cn1c(=O)[nH]/c(=N\\c2ccc(Oc3ccccn3)cc2)n(Cc2ccc(Cl)cc2)c1=O [Compound I-131]"
  unit-string: "nM"
  measured-number: 8
- compound: "COC(=O)[C@@H](C)Cn1c(=O)[nH]/c(=N\\c2ccc(Oc3cc(C)ccn3)cc2)n(Cc2ccc(Cl)cc2)c1=O [Compound I-076]"
  unit-string: "nM"
  measured-number: 22
- compound: "COC(=O)[C@@H](C)Cn1c(=O)[nH]/c(=N\\c2ccc(Oc3cccc(F)n3)cc2)n(Cc2ccc(F)cc2F)c1=O [Compound I-026]"
  unit-string: "nM"
  measured-number: 17
- compound: "C[C@@H](Cn1c(=O)[nH]/c(=N\\c2ccc(Oc3ncccc3OC(F)F)cc2)n(Cc2ccc(Cl)cc2)c1=O)C(=O)O [Compound I-044]"
  unit-string: "nM"
  measured-number: 26
- compound: "COC(=O)C[C@@H](C)n1c(=O)[nH]/c(=N\\c2ccc(Oc3ccccn3)cc2)n(Cc2ccc(Cl)cc2)c1=O [Compound I-157]"
  unit-string: "nM"
  measured-number: 5
- compound: "CC(C)(Cn1c(=O)[nH]/c(=N\\c2ccc(Oc3ncccn3)c(F)c2)n(Cc2ccc(Cl)cc2)c1=O)C(=O)O [Compound R-165]"
  unit-string: "nM"
  measured-number: 14
- compound: "COC(=O)C(C)(C)Cn1c(=O)[nH]/c(=N\\c2ccc(Oc3ncns3)cc2)n(Cc2ccc(Cl)cc2)c1=O [Compound R-136]"
  unit-string: "nM"
  measured-number: 6
- compound: "COC(=O)[C@@H](C)Cn1c(=O)[nH]/c(=N\\c2ccc(Oc3cccc(CO)n3)cc2)n(Cc2ccc(C)cc2)c1=O [Compound I-246]"
  unit-string: "nM"
  measured-number: 14
- compound: "COC(=O)C(C)(C)Cn1c(=O)[nH]/c(=N\\c2ccc(Oc3ccc(Cl)cn3)cc2)n(Cc2ccc(C)cc2)c1=O [Compound I-098]"
  unit-string: "nM"
  measured-number: 7
- compound: "COC(=O)[C@@H](C)Cn1c(=O)[nH]/c(=N\\c2ccc(Oc3ccnc(C#N)c3)cc2)n(Cc2ccc(Cl)cc2)c1=O [Compound R-099]"
  unit-string: "nM"
  measured-number: 4
- compound: "Cc1ccc(Oc2ccc(/N=c3\\[nH]c(=O)n(C[C@H](C)C(=O)O)c(=O)n3Cc3ccc(Cl)cc3)cc2)nc1 [Compound I-054]"
  unit-string: "nM"
  measured-number: 5
- compound: "COc1cccc(Oc2ccc(/N=c3\\[nH]c(=O)n(C[C@H](C)C(=O)O)c(=O)n3Cc3ccc(C)cc3)cc2)n1 [Compound I-218]"
  unit-string: "nM"
  measured-number: 10
- compound: "CC(C)Oc1ccc(/N=c2\\[nH]c(=O)n(C[C@@H](O)CC(=O)O)c(=O)n2Cc2ccc(Cl)cc2)cc1Cl [Compound R-179]"
  unit-string: "nM"
  measured-number: 56
- compound: "COC(=O)[C@H](C)[C@H](C)n1c(=O)[nH]/c(=N\\c2ccc(Oc3ccnc(Cl)c3)cc2)n(Cc2ccc(Cl)cc2)c1=O [Compound R-150]"
  unit-string: "nM"
  measured-number: 18
- compound: "COC(=O)[C@@H](C)Cn1c(=O)[nH]/c(=N\\c2ccc(O[C@H](C)C(F)(F)F)c(C)c2)n(Cc2ccc(Cl)cc2)c1=O [Compound R-097]"
  unit-string: "nM"
  measured-number: 212
- compound: "COC(=O)[C@H](C)[C@H](C)n1c(=O)[nH]/c(=N\\c2ccc(Oc3cc(F)nc(F)c3)cc2)n(Cc2ccc(Cl)cc2)c1=O [Compound R-156]"
  unit-string: "nM"
  measured-number: 35
- compound: "COC(=O)C(C)(C)Cn1c(=O)[nH]/c(=N\\c2ccc(Oc3ccccn3)c(F)c2)n(Cc2ccc(Cl)cc2)c1=O [Compound I-227]"
  unit-string: "nM"
  measured-number: 31
- compound: "CC(CO)(CO)Cn1c(=O)[nH]/c(=N\\c2ccc(Oc3ccccn3)cc2)n(Cc2ccc(Cl)cc2)c1=O [Compound R-244]"
  unit-string: "nM"
  measured-number: 4
